Target: T1, human programmed cell death protein 1 (hPD-1) C93S (aa 24-167) (Homo sapiens, UniProt Q15116, C93S)
T1 construct: made as a fusion with a TEV site and human Fc; the Fc was cut off with TEV protease; source: Expi293F, purified (Protein A, TEV cleavage of Fc, SEC; monomer fractions); not shown: Fc (human), C-terminal, cleaved
T1 sequence (Q15116 24-167 C93S): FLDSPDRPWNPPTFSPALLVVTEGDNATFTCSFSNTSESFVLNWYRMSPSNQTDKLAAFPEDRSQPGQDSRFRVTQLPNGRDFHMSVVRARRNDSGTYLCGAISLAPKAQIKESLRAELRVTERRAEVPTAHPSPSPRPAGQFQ
Assay: SPR; Carterra LSA; Fab from the ammonium sulfate precipitate of the culture supernatant immobilised on a NiHC200M chip; hPD-1 (1-1024 nM) or mPD-1-Fc (4-1024 nM) as analyte, fourfold dilution series, no regeneration; HBS-EP pH 7.4, 25 °C; medians over the spots of a construct, KD = koff/kon
Details: one partner purified
measure: Kd (nM)
Just the number please, in nM, no unit attached.

Query: Would you kindly share the measured Kd for toripalimab Fab H.G100A (Fab, V domains shown, heavy chain of Sm3 with this change; numbers count from the chain's first residue; as the light chain of Sm3; source: Brevibacillus, culture supernatant (ammonium sulfate precipitate); not shown: 6xHis, C-terminal, kept; 6xHN, C-terminal, kept) VH: QGQLVQSGAEVKKPGASVKVSCKASGYTFTDYEMHWVRQAPIHGLEWIGVIESETGGTAYNQKFKGRVTITADKSTSTAYMELSSLRSEDTAVYYCAREAITTVATTYYWYFDVWGQGTTVTVSS VL: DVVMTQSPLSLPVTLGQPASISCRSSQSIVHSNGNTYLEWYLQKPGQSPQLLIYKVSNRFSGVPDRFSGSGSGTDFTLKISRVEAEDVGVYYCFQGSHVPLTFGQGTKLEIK ?
Result: 0.593

Query: Would you kindly share the measured Kd for toripalimab Fab H.T106Y (Fab, V domains shown, heavy chain of Sm3 with this change; numbers count from the chain's first residue; as the light chain of Sm3; source: Brevibacillus, culture supernatant (ammonium sulfate precipitate); not shown: 6xHis, C-terminal, kept; 6xHN, C-terminal, kept) VH: QGQLVQSGAEVKKPGASVKVSCKASGYTFTDYEMHWVRQAPIHGLEWIGVIESETGGTAYNQKFKGRVTITADKSTSTAYMELSSLRSEDTAVYYCAREGITTVAYTYYWYFDVWGQGTTVTVSS VL: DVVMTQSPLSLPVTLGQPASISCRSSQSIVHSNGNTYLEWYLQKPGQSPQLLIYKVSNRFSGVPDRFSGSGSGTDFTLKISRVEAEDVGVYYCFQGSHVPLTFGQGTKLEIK ?
Result: 0.833

Query: Would you kindly share the measured Kd for toripalimab Fab H.E54A (Fab, V domains shown, heavy chain of Sm3 with this change; numbers count from the chain's first residue; as the light chain of Sm3; source: Brevibacillus, culture supernatant (ammonium sulfate precipitate); not shown: 6xHis, C-terminal, kept; 6xHN, C-terminal, kept) VH: QGQLVQSGAEVKKPGASVKVSCKASGYTFTDYEMHWVRQAPIHGLEWIGVIESATGGTAYNQKFKGRVTITADKSTSTAYMELSSLRSEDTAVYYCAREGITTVATTYYWYFDVWGQGTTVTVSS VL: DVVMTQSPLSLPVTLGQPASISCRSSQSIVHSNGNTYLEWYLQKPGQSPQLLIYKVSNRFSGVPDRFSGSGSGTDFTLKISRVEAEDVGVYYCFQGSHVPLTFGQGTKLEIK ?
Result: 1.23
